Test system: A549 cells
Assay: Cell growth inhibitory activity using A549 cells (Test Example 6)
Format: cell-based, Human
Cond: Homo sapiens, A549; compound 30 µM, 5% serum, 40 hr, counting kit-8; read-out: Cell growth inhibition rate (%)
Method: Human lung cancer epithelial cells (A549) (available from ATCC) were suspended to a concentration of 3 × 10^4/ml in a DMEM/F12 medium containing 10%FCS, and the suspension was inoculated in 100 µl portions in wells of a 96-well plate. On the following day, a stock solution of the test compound which had been adjusted to 10 mM with DMSO was adjusted with a serum-free DMEM/F12 medium to a dose (60 µM) which was twice the evaluation concentration. […]
Kindly supply the reported inhibition at 30 µM values for the records listed here.
Numbers only, in %.

// below: answered compounds
>>> measured_value("Cc1ccc(Oc2ccnc3cc(C(N)=O)ccc23)c(-c2ncccn2)n1 [Compound 217]")
4
>>> measured_value("Cc1cc(Oc2ccnc3ccc(OCCO)cc23)c(-c2ncccn2)nc1C [Compound 200]")
0
>>> measured_value("Cc1ccc(Oc2ccnc3ccc(OCCO)cc23)c(-c2ncccn2)n1 [Compound 202]")
8
>>> measured_value("CCc1ccc(Oc2ccnc3ccc(OCCOC(C)=O)cc23)c(-c2ncccn2)n1 [Compound 206]")
-1
>>> measured_value("CCc1ccc(Oc2ccnc3cc(F)c(OCCO)cc23)c(-c2ncccn2)n1 [Compound 225]")
8

Please go through the list and note inhibition at 30 µM for each compound.
1. Cc1ccc(Oc2ccnc3ccc(OCCCO)cc23)c(-c2ncccn2)n1 [Compound 222]
2. CCc1ccc(Oc2ccnc3ccc(OCCOC(C)=O)cc23)c(-c2ccccn2)n1 [Compound 182]
3. CCc1ccc(Oc2ccnc3ccc(OC(C)=O)cc23)c(-c2ccccn2)n1 [Compound 186]
4. Cc1ccc(Oc2ccnc3ccc(OCCO)cc23)c(-c2ccccn2)n1 [Compound 205]
5. CCc1ccc(Oc2ccnc3cc(C(N)=O)c(O)cc23)c(-c2ncccn2)n1 [Compound 194]
6. CCc1ccc(Oc2ccnc3cc(C(N)=O)c(OC)cc23)c(-c2ccccn2)n1 [Compound 179]
7. CCc1ccc(Oc2ccnc3ccc(OS(C)(=O)=O)cc23)c(-c2ccccn2)n1 [Compound 187]
8. CCc1ccc(Oc2ccnc3ccc(OCCO)cc23)c(-c2ncccn2)n1 [Compound 192]

**Result**
1. 6
2. -8
3. -2
4. 9
5. -15
6. -3
7. 0
8. 3

I need inhibition at 30 µM for every entry listed below, if you could help.
1. CCc1ccc(Oc2ccnc3ccc(O)cc23)c(-c2ccccn2)n1 [Compound 184]
2. CCc1ccc(Oc2ccnc3ccc(OCCN)cc23)c(-c2ncccn2)n1 [Compound 204]
3. Cc1ccc(Oc2ccnc3ccc(O)cc23)c(-c2ncccn2)n1 [Compound 201]
4. CCc1ccc(Oc2ccnc3ccc(OCCO)cc23)c(-c2ccccn2)n1 [Compound 181]

**Result**
1: 8; 2: -9; 3: 2; 4: -7
